Target: ABCB1 (Homo sapiens)
Sequence (P08183 whole entry): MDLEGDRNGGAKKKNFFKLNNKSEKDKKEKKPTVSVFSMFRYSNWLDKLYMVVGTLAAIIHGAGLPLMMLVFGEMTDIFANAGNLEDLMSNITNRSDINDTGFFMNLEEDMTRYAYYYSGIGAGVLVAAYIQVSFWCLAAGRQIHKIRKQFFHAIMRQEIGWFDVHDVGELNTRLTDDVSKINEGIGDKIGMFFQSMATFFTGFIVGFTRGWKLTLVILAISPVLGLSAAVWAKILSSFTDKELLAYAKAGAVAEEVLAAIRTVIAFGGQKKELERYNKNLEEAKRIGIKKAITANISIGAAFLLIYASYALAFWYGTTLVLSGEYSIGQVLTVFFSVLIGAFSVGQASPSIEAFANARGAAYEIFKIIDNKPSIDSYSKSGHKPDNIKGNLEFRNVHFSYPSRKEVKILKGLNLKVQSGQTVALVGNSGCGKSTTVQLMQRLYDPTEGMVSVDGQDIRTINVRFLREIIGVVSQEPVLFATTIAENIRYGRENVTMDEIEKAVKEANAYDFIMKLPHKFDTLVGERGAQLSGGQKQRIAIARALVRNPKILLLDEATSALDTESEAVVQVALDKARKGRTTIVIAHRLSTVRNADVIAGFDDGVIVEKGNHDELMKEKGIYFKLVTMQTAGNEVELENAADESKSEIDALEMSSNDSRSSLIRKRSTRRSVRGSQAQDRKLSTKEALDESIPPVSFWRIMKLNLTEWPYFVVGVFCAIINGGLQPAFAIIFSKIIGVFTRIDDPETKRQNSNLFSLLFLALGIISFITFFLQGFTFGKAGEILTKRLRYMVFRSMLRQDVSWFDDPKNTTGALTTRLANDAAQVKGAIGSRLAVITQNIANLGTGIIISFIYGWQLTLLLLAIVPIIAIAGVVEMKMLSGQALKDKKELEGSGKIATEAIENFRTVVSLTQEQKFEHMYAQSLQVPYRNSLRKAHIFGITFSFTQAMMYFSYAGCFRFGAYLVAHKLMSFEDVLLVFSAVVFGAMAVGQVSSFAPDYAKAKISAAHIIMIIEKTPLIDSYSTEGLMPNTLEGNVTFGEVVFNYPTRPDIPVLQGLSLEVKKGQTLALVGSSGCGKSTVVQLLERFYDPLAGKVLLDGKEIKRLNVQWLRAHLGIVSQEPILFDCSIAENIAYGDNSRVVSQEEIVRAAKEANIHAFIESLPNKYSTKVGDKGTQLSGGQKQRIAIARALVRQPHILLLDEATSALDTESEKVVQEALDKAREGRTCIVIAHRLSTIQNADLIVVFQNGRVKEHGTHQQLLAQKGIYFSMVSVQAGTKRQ
Test: Inhibition of calcein-AM efflux in LLC-PK1 cells expressing ABCB1
Format: cell-based
PROPERTY NAME: IC50 (µM)

>>> print(df.to_string())
                                        mol          assay_system  property_name  unit_tag  result_value
0  CNC(=O)c1cc(Oc2ccc(NC(=O)Nc3ccc(Cl)c(C(F)(F)F)c3)cc2)ccn1  ABCB1 (Homo sapiens)           IC50        µM          16.6
